Molecular target: T1, human CD3ε/δ-Fc fusion protein (soluble recombinant CD3ε/δ complex) (human, UniProt P04234 22-105)
T1 construct: also called huCD3ε/δ; huCD3; not shown: hinge, CH2, CH3 of human IgG with tag
T1 sequence (chain, as listed by the source mutant, chain 1 of 2): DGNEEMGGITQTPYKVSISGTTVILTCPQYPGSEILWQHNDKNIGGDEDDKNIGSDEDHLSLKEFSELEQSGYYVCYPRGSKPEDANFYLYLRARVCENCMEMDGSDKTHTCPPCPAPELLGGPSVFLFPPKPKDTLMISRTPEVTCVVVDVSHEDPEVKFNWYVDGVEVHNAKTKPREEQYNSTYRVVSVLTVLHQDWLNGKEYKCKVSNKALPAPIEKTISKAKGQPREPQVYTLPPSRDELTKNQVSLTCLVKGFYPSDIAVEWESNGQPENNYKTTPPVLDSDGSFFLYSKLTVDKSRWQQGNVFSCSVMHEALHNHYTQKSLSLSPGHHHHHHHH
T1 sequence (P04234 22-105, stated change not applied, chain 2 of 2): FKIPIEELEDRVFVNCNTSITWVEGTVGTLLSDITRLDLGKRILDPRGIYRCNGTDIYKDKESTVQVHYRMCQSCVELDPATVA
Assay: SPR Biacore, Fab
Procedure: Binding affinities of anti-CD3 binding Fabs or CODV-Fabs were measured by surface plasmon resonance (SPR) using a Biacore3000 instrument (GE Healthcare). Assay buffer was HBS-EP (BR-1001-88, GE Healthcare). Capture of CD3ε/δ-Fc fusion proteins was achieved using the human antibody capture kit (GE Healthcare). […] Binding kinetics with the anti-CD3 Fabs or CODV-Fabs was measured at 30 μl/min for 240 sec. and 600 sec. for association and dissociation phase, respectively. […]
EXPERIMENTAL_READOUT: koff
Enter the number, and then the unit.

humanized 4B4 Fab 4B4_6 (VL1a, VH1A) (Fab, V domains shown, expressed as Fab-fragment) VH: QVQLVETGGGLVKPGQSLKLTCATSGFTFSNAWMHWVRQSPEKGLEWVAQIKARSNNYATYYAESVKGRFTISRDDSKSTIYLQMNSLTPEDTAIYYCRGTYYASKPFDYWGQGVMVTVSS VL: DVVMTQTPVSLSVSVGGRVSISCRSSQSLVHDNGNTYLSWSLQKPGKSPKVLIYKVSNRFSGVSSRFTGSGSGTDFTLKISSVQPDDLGVYYCGQGTQYPFTFGSGTKLEIK	0.00185 s⁻¹

Now, please, on to the next binder.
Input line: Could you share which koff value was measured for humanized 4B4 Fab 4B4_9 (VL2B, VH2A) (Fab, V domains shown, expressed as Fab-fragment) VH: EVQLVETGGGLVQPGGSLKLTCATSGFTFSNAWMHWVRQSPEKGLEWVAQIKARSNNYATYYAESVKGRFTISRDDSKSTIYLQMNSLRAEDTAIYYCRGTYYASKPFDYWGQGVMVTVSS VL: DVVMTQTPVSLSVSPGGPVSISCRSSQSLVHDNANTYLSWSLQKPGQSPQVLIYKVSNRFSGVSDRFTGSGSGTDFTLKISRVEPDDLGVYYCGQGTQYPFTFGSGTKLEIK ?
Output line: 0.00291 s⁻¹
